# assay.procedure: physchem
# condition.set: octanol/water, pH 11
# Description: Octanol/water partition coefficient, log D of the compound at pH 11
quantity: logD
Answer with the value's number alone.

Known results for compounds:
[[record]]
compound = "CCP(=O)(CC)c1ccncc1"
observed = -1

[[record]]
compound = "Cc1ccc(NC(=O)c2ccc(C(=O)N(C)C)cc2)cc1Nc1nccc(-c2cccnc2)n1"
observed = 2

[[record]]
compound = "CC(C)N1CCP(=O)(c2ccc(C(F)(F)F)cc2)CC1"
observed = 2


Fill blank: measured logD of the compound `O=P1(c2ccc(C(F)(F)F)cc2)CCOCC1` is ____.
1.1

Now try CS(=N)(=O)c1ccc(C(F)(F)F)cc1 (configuration not stated) .
0.9

Now try CCOP(C)(=O)c1ccc(C(=O)Nc2ccc(C)c(Nc3nccc(-c4cccnc4)n3)c2)cc1 (configuration not stated) .
2.2

Now try CCOP(C)(=O)c1ccc(C(F)(F)F)cc1 (configuration not stated) .
2.3

Now try `O=P1(c2ccc(C(F)(F)F)cc2)CCCCC1` .
2

Now try CN=S(=O)(NC)c1ccc(C(F)(F)F)cc1 (configuration not stated) .
1.8

Now try `CP(C)(=O)c1ccc(C(F)(F)F)cc1` .
1.1

Now try `CCP(=O)(CC)c1ccc(C(F)(F)F)cc1` .
2

Now try `Cc1ccc(NC(=O)c2ccc(P(C)(C)=O)cc2)cc1Nc1nccc(-c2cccnc2)n1` .
1.5

====

efflux ratio at 2 h: recorded values
# assay.procedure: in vitro
# condition.set: human, Caco-2
# Description: Efflux ratio of permeability in human Caco2 cells measured up to 2 hrs by LC-MS/MS analysis or scintillation counting method
Answer with the value's number alone.

Known results for compounds:
[[record]]
compound = "Cc1ccc(NC(=O)c2ccc(P(C)(C)=O)cc2)cc1Nc1nccc(-c2cccnc2)n1"
observed = 16

[[record]]
compound = "CCP(=O)(CC)c1ccc(C(F)(F)F)cc1"
observed = 0.7

[[record]]
compound = "O=P1(c2ccc(C(F)(F)F)cc2)NCCCO1 (configuration not stated)"
observed = 0.7

[[record]]
compound = "CS(=N)(=O)c1ccc(C(F)(F)F)cc1 (configuration not stated)"
observed = 0.7

[[record]]
compound = "NC(=O)c1ccc(C(F)(F)F)cc1"
observed = 1


Consider the additional compound presented here.
Fill blank: measured efflux ratio at 2 h of the compound `O=P1(c2ccc(C(F)(F)F)cc2)CCCC1` is ____.
0.7

====

# assay.procedure: physchem
# condition.set: pH 6.8 buffer
quantity: solubility thermodynamic at 24 h (µg/mL)
Hi! Could you send only the number? It should be in µg/mL, unit omitted.

Known results for molecules:
[[record]]
molecule = "O=P1(c2ccc(C(F)(F)F)cc2)CCC1"
quantity = "solubility thermodynamic at 24 h"
units_of_measure = "µg/mL"
observed = 24500

[[record]]
molecule = "Cc1ccc(NC(=O)c2ccc(P(=O)(O)O)cc2)cc1Nc1nccc(-c2cccnc2)n1"
quantity = "solubility thermodynamic at 24 h"
units_of_measure = "µg/mL"
observed = 700

[[record]]
molecule = "CN1CCCOP1(=O)c1ccc(C(F)(F)F)cc1 (stereo unspecified)"
quantity = "solubility thermodynamic at 24 h"
units_of_measure = "µg/mL"
observed = 7500

[[record]]
molecule = "CCOP(=O)(OCC)c1ccncc1"
quantity = "solubility thermodynamic at 24 h"
units_of_measure = "µg/mL"
observed = 29500


Fill blank: measured solubility thermodynamic at 24 h of the molecule `NS(=O)(=O)c1ccc(C(F)(F)F)cc1` is ____.
800

====

solubility thermodynamic at 24 h: recorded values
# assay.procedure: physchem
# condition.set: pH 6.8 buffer
Hi! Could you send only the number? It should be in µg/mL, unit omitted.

Known results for compounds:
[[record]]
compound = "COC(=O)c1ccc(C(F)(F)F)cc1"
units_of_measure = "µg/mL"
observed = 20

[[record]]
compound = "CCOP(=O)(O)c1ccc(C(=O)Nc2ccc(C)c(Nc3nccc(-c4cccnc4)n3)c2)cc1"
units_of_measure = "µg/mL"
observed = 1100

[[record]]
compound = "CN(C)S(=O)(=O)c1ccc(C(F)(F)F)cc1"
units_of_measure = "µg/mL"
observed = 90


Consider the additional compound presented here.
Fill blank: measured solubility thermodynamic at 24 h of the compound CN=S(=O)(c1ccc(C(F)(F)F)cc1)N(C)C (stereo not given) is ____.
1200

====

# assay.procedure: in vitro
# condition.set: human, Caco-2
# Description: Permeability across apical to basolateral side in human Caco2 cells measured up to 2 hrs by LC-MS/MS analysis or scintillation counting method
Lab note: anything with Papp A→B at 2 h at or over 60 ×10⁻⁶ cm/s counts as Met; the rest go in Not met.

Worked examples, 3 compounds total:
[[record]]
compound = "NS(=O)(=O)c1ccc(C(F)(F)F)cc1"
label = "Met"

[[record]]
compound = "O=P1(c2ccc(C(F)(F)F)cc2)CCOCC1"
label = "Met"

[[record]]
compound = "O=P1(c2ccc(C(F)(F)F)cc2)OCCCO1"
label = "Met"


Please check the record CCOP(C)(=O)c1ccc(C(=O)Nc2ccc(C)c(Nc3nccc(-c4cccnc4)n3)c2)cc1 (stereo unspecified) and state if its Papp A→B at 2 h is at or above 60 ×10⁻⁶ cm/s.
Not met

Now try O=P1(c2ccc(C(F)(F)F)cc2)NCCCO1 (stereo unspecified) .
Not met

Now try `CCOP(=O)(OCC)c1ccncc1` .
Met

====

# assay.procedure: Basic dissociation constant, pKb of the compound by UV absorption spectra analysis or potentiometric titration technique
# Format: physicochemical
quantity: pKb
Answer with the value's number alone.

Known results for compounds:
[[record]]
compound = "CC(C)N1CCP(=O)(c2ccc(C(F)(F)F)cc2)CC1"
observed = 7

[[record]]
compound = "CNS(=N)(=O)c1ccc(C(F)(F)F)cc1 (configuration not stated)"
observed = 2.4

[[record]]
compound = "O=P1(c2ccc(C(F)(F)F)cc2)CCNCC1"
observed = 6.9

[[record]]
compound = "O=S1(c2ccc(C(F)(F)F)cc2)=NCCCC1 (configuration not stated)"
observed = 3.8

[[record]]
compound = "CS(=N)(=O)c1ccc(C(F)(F)F)cc1 (configuration not stated)"
observed = 2.5

[[record]]
compound = "CN1CCP(=O)(c2ccc(C(F)(F)F)cc2)CC1"
observed = 6.3


Consider the additional compound presented here.
Fill blank: measured pKb of the compound `O=P1(c2ccc(C(F)(F)F)cc2)OCCNCCO1` is ____.
6

====

# assay.procedure: Acid dissociation constant, pKa2 of the compound by UV absorption spectra analysis or potentiometric titration technique
# Type: physicochemical
quantity: pKa
Answer with the value's number alone.

Fill blank: measured pKa of the molecule `O=P(O)(O)c1ccc(C(F)(F)F)cc1` is ____.
6.8

====

# assay.procedure: Chemical stability of the compound in MeOH/H2O solution at pH >10 assessed as compound decomposition measured after 1 day by UV-RP-HPLC analysis
# Type: physicochemical
# condition.set: read-out: Drug degradation
quantity: degraded at 24 h (%)
Hi! Could you send only the number? It should be in %, unit omitted.

Fill blank: measured degraded at 24 h of the molecule `O=P1(c2ccc(C(F)(F)F)cc2)OCCNCCO1` is ____.
20

====

efflux ratio at 2 h: recorded values
# assay.procedure: in vitro
# condition.set: human, Caco-2

Known results for compounds:
[[record]]
compound = "CN=S(=O)(NC)c1ccc(C(F)(F)F)cc1 (centres undefined)"
quantity = "efflux ratio at 2 h"
observed = 0.5

[[record]]
compound = "NS(=O)(=O)c1ccc(C(F)(F)F)cc1"
quantity = "efflux ratio at 2 h"
observed = 0.6

[[record]]
compound = "CCOP(=O)(OCC)c1ccc(C(=O)Nc2ccc(C)c(Nc3nccc(-c4cccnc4)n3)c2)cc1"
quantity = "efflux ratio at 2 h"
observed = 1.6


Fill blank: measured efflux ratio at 2 h of the compound `O=P1(c2ccc(C(F)(F)F)cc2)OCCNCCO1` is ____.
0.7

Now try CCOP(C)(=O)c1ccc(C(=O)Nc2ccc(C)c(Nc3nccc(-c4cccnc4)n3)c2)cc1 (centres undefined) .
9.9

Now try CNS(=N)(=O)c1ccc(C(F)(F)F)cc1 (centres undefined) .
0.9

Now try `CNS(=O)(=O)c1ccc(C(F)(F)F)cc1` .
0.9

Now try `CC1(C)COP(=O)(c2ccc(C(F)(F)F)cc2)OC1` .
0.6

Now try CN=S(=O)(c1ccc(C(F)(F)F)cc1)N(C)C (centres undefined) .
0.8

====

# assay.procedure: physchem
# condition.set: pH 6.8 buffer
solubility thermodynamic at 24 h: recorded values

Known results for compounds:
[[record]]
compound = "CCOC(=O)c1ccc(C(=O)Nc2ccc(C)c(Nc3nccc(-c4cccnc4)n3)c2)cc1"
observed = "< 1 µg/mL"

[[record]]
compound = "O=S1(c2ccc(C(F)(F)F)cc2)=NCCCC1 (stereo unspecified)"
observed = "> 59 µg/mL"

[[record]]
compound = "COC(=O)c1ccc(C(F)(F)F)cc1"
observed = "< 1 µg/mL"

[[record]]
compound = "CS(=O)(=O)c1ccc(C(F)(F)F)cc1"
observed = "> 47 µg/mL"


Consider the additional compound presented here.
Fill blank: measured solubility thermodynamic at 24 h of the compound `O=P1(c2ccc(C(F)(F)F)cc2)CCCC1` is ____.
> 59 µg/mL
